# ASSAYED_TARGET: m7GpppX diphosphatase (Mus musculus)
# Sequence (Q9DAR7 whole entry): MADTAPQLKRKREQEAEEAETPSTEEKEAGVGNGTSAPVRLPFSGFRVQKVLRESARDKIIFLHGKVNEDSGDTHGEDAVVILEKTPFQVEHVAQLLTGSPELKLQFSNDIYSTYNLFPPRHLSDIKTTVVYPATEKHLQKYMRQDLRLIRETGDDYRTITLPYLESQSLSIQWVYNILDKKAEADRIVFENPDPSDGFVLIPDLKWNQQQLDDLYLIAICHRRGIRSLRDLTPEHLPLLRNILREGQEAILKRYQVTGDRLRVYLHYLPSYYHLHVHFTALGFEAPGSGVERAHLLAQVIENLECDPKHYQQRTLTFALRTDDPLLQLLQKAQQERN
# TEST_DETAILS: Inhibition of DcpS in human SMN2 promoter driven mouse NSC-34 cell lysate assessed as increase in SMN2 expression after 18 hrs by beta-lactamase reporter gene assay
READOUT_LABEL: pEC50
Just so you know, pEC50 here is -log10 of the concentration in molar units; reply with that number alone.

**Query** Which value of pEC50 has been reported for Nc1nc(N)c2c(OCC3CCN(C(=O)c4cccc(I)c4)CC3)cccc2n1 in the records?
**Result** 7.44

----------
# ASSAYED_TARGET: m7GpppX diphosphatase (Mus musculus)
# TEST_DETAILS: Inhibition of DcpS in human SMN2 promoter driven mouse NSC-34 cells assessed as increase in SMN2 mRNA expression after 18 hrs by RT-PCR analysis
pEC50: −log10 of the molar value.
Would you please tag the item YES when its pEC50 is 6 or above, and NO when it is below?

Below, 2 compounds whose answers are already recorded.
Nc1nc(N)c2c(OCC3CCN(CC(F)(F)F)CC3)cccc2n1    YES
CC(=O)Nc1nc(CN2CCC(COc3cccc4nc(N)nc(N)c34)CC2)cs1    NO

Consider now this further compound.
**Query** API: above_or_equal(metric=pEC50, cutoff=6) for item Cn1ccnc1CN1CCC(COc2cccc3nc(N)nc(N)c23)CC1
**Result** YES

----------
# ASSAYED_TARGET: m7GpppX diphosphatase (Homo sapiens)
# Sequence (Q96C86 whole entry): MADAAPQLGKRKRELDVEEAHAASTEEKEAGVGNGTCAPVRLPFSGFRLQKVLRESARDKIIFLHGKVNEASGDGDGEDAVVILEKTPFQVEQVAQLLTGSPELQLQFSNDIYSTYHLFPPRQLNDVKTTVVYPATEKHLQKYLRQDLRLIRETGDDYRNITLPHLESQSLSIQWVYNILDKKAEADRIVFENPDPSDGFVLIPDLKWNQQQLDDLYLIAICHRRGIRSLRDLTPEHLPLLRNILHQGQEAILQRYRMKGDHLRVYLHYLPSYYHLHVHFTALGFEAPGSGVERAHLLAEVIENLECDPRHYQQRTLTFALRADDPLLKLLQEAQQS
# TEST_DETAILS: Inhibition of recombinant flag-tagged DcpS (unknown origin) decapping activity assessed as reduction in hydrolysis of m7GpppG to m7G using unlabeled cap structure as substrate after 30 secs by PEI cellulose thin-layer chromatographic assay
READOUT_LABEL: IC50 (µM)
Value expressed in µM; do not type the unit.

**Query** Which value of IC50 has been reported for C[n+]1cn([C@@H]2O[C@H](COP(=O)(O)OP(=O)([O-])OP(=O)(O)OC[C@H]3O[C@@H](n4cnc5c(=O)[nH]c(N)nc54)[C@H](O)[C@@H]3O)[C@@H](O)[C@H]2O)c2nc(N)[nH]c(=O)c21 in the records?
**Result** 0.03

Data provenance: ChEMBL document CHEMBL3991949
